# Tested on: NCI-H522
# assay-comment: NCI tumour cell line growth inhibition, 48 h
Calls of active or inactive are those of the source. No stated cut-off is given here; in the data, active = GI50 up to about 1.1 µM and inactive = higher. Where a SMILES comes first, the peptide text is derived from it. [ ]: non-standard residue; d: D form. The star is where a group is joined. Cbz = O=C(OCc1ccccc1)*; Aib = CC(C)(N)C(=O)O; OBn = c1ccc(CO*)cc1
Classes used: active, inactive

compound | class-label
Cc1c(-c2ccccc2)c(C#N)c2nnn(-c3ccc(Cl)cc3)c(=O)n12 | inactive
CCCCCCCCCCCC1CCCC(C)N1 (configuration not stated) | inactive
COC(=O)c1cc2c3c(ccc2[nH]1)N(C(=O)c1cc2cc(OC)c(OC)c(OC)c2[nH]1)CC3CCl (configuration not stated) | inactive
CC(=O)OC1CC(O)CC2=CCC3C4CCC(C(C)(O)C(O)CC5COC(=O)C5C)C4(C)CCC3C21C (configuration not stated) | inactive
CC(NC(=O)C(C)(C)NC(=O)C(CC(=O)OCc1ccccc1)NC(=O)OCc1ccccc1)C(N)=O (configuration not stated) (Cbz-Asp(OBn)-[Aib]-Ala-NH2; configuration not given here) | inactive
O=C1OCCC1(Cc1ccc(Cl)cc1)Cc1ccc(Cl)cc1 | inactive
C=CCC1=C(C)C[C@@H]2CCC(=O)C=C12 | inactive
CCOC(=O)C1S/C(=N\c2ccc(Cl)cc2)N=C1C (configuration not stated) | inactive
Clc1ccc(-c2nn3c(COc4ccc(OCc5nnc6sc(-c7ccc(Cl)cc7)nn56)c(Cl)c4)nnc3s2)cc1 | inactive
O=S(=O)(O)SCCNCCCCCC1CCCCC1 | inactive
COc1c2c(cc3oc(C)cc(=O)c13)OC(=N)C(C(N)=O)C2CC(=O)c1ccc(N)cc1 (configuration not stated) | inactive
Cn1c(=O)c2[nH]cnc2n(CC(N)=O)c1=O | inactive
O=c1[nH]c(=S)[nH]c(-c2ccccc2)c1Cc1c(O)ccc2ccccc12 | inactive
COc1ncc(C#CC(=O)c2ccccc2OC)c(OC)n1 | active
CCOC(=O)C(=Cc1ccc(C(=O)OC)cc1)C(=O)OCC | inactive
CC(C)(C)C(=O)N1CCN(C=O)C1=S | inactive
COCOCCC#CCO | inactive
O=[N+]([O-])c1cccc2nc3ccccc3c(NCCCN3CCCCC3)c12 | active
Cn1cnc2nc(Cl)nc(NC(C)(C)C(C)(C)O)c21 | inactive
Cc1ccc(/C=C2\NC(=S)NC2=O)cc1 | inactive
CN(C)C1(C(=O)O)CC1 | inactive
O=C(Nc1noc(-c2ccccc2)n1)c1ccccc1CNc1noc(-c2ccccc2)n1 | inactive

* * *

# Test system: 786-0
# assay-comment: NCI tumour cell line growth inhibition, 48 h
Active and inactive are the calls of the source. Rule as the data show it: active = GI50 up to about 1.1 µM and inactive = higher.
Consider the following compounds and their measured GI50 readings.

compound | GI50
CCOC(=O)C(C(=O)OCC)=C1C=C(c2ccccc2)c2ccccc21 | 28.5 µM (inactive)
C=C(Cl)C(C)(Cl)CCC(Cl)C(C)C (stereo not given) | > 100 µM (inactive)
O=C(O)COc1cc(-c2ccccc2)nc2cc(F)ccc12 | > 100 µM (inactive)
O=C1c2ccccc2/C(=N\c2ccc3ccccc3c2)C1(C1=C(c2ccccc2)/C(=N/c2ccc3ccccc3c2)c2ccccc21)c1ccccc1 (stereo not given) | 4.8 µM (inactive)
Cc1ccc(NC(=O)CC/C(CC(=O)C(C)(C)C)=N/NC(=O)C[N+](C)(C)C)cc1C | 18.2 µM (inactive)

* * *

# System: SK-MEL-5
# assay-comment: NCI tumour cell line growth inhibition, 48 h
Active and inactive are the calls of the source. No stated cut-off is given here; in the data, active = GI50 up to about 1.1 µM and inactive = higher.
measurement-type: GI50

molecule | result
O=C(O)CCc1ccc(-c2ccccc2)[nH]1 | > 100 µM (inactive)
OC1NC2CC3NC(O)C(O)NC3CC2NC1O (stereo not given) | > 100 µM (inactive)
O=c1c2cccc3cccc(c4oc5c6cccc7cccc(c(=O)c5c14)c76)c32 | 15.2 µM (inactive)
CC(=O)NC1C(OCc2ccccc2)OC(CO)C(O)C1OCC(=O)N1CCCC1C(=O)N[C@@H](CCC(=O)NCCNCCNc1c2ccccc2nc2cccc([N+](=O)[O-])c12)C(N)=O (stereo not given in full) | 1.48 µM (inactive)
Nc1ccc(-c2nc3cc(F)ccc3s2)cc1CO | > 96.8 µM (inactive)
C=C(Cl)C(C)(Cl)CCC(Cl)C(C)C (stereo not given) | > 100 µM (inactive)
CN(C)CCNC(=O)c1cccc2nc3c(ccc4ccccc43)nc12 | 1.76 µM (inactive)
CC1=NN(c2cccc(Cl)c2)C(=N/c2nc3ccccc3s2)/C1=C\c1ccc(Cl)cc1 | 15.8 µM (inactive)
CC(C)(C)OC(=O)NC(CSCc1ccc(C(=O)c2ccccc2)cc1)C(=O)O (stereo not given) | > 100 µM (inactive)
CCOc1ccc(NC(=O)C2=C(C)NC(C)=C(C(=O)Nc3ccc(OCC)cc3)C2c2ccc(O)c(OC)c2)cc1 | 46 µM (inactive)

* * *

Consider the following compounds and their measured GI50 readings.
# Tested on: CAKI-1
# assay-comment: NCI tumour cell line growth inhibition, 48 h
Active and inactive are the calls of the source. Rule as the data show it: active = GI50 up to about 1.1 µM and inactive = higher.
measurement-type: GI50

compound | system-under-test | measurement-type | result
O=[N+]([O-])/C(C(Cl)=C(Cl)Cl)=C(\N1CCCCC1)n1cncn1 | CAKI-1 | GI50 | 10.6 µM (inactive)
Cc1c(-c2ccccc2)c(-c2ccc(OCCN(C)C)cc2)n2ccccc12 | CAKI-1 | GI50 | 11.2 µM (inactive)
CC(=O)N1CCN(C23OC4(N5CCN(C(C)=O)CC5)C5C6CC(C7C6C4C72)C53)CC1 (centres undefined) | CAKI-1 | GI50 | > 100 µM (inactive)
CCOC(=O)NC(Nc1c(F)c(F)c(F)c(F)c1F)(C(F)(F)F)C(F)(F)F | CAKI-1 | GI50 | > 100 µM (inactive)
COC(=O)CCc1ccc(CCC(=O)OC)cc1 | CAKI-1 | GI50 | > 100 µM (inactive)
C=Cc1cc(OC)c2c(c1)c(=O)oc1c2cc(OC)c2c(O)ccc(C3OC(C)C(O)C(C)(O)C3O)c21 (centres undefined) | CAKI-1 | GI50 | 0.0462 µM (active)
CC(=O)O[C@H]1CC[C@@]2(C)C(=C[C@H](c3ccc(O)cc3)[C@H]3[C@@H]4CC[C@H](OC(C)=O)[C@@]4(C)CC[C@@H]32)C1 | CAKI-1 | GI50 | 18.6 µM (inactive)
N#CC(/C(=N/NC(=N)N)C(=O)Nc1ccccc1[N+](=O)[O-])c1nc(-c2ccc([N+](=O)[O-])cc2)cs1 (centres undefined) | CAKI-1 | GI50 | > 100 µM (inactive)
CCP(=O)(CC)C(Cl)(Cl)C(=O)NC | CAKI-1 | GI50 | > 100 µM (inactive)

* * *

# Test system: MDA-MB-435
# assay-comment: NCI tumour cell line growth inhibition, 48 h
Calls of active or inactive are those of the source. Rule as the data show it: active = GI50 up to about 1.1 µM and inactive = higher.
Consider the following molecules and their measured GI50 readings.

molecule | GI50
Cc1nc2cc([N+](=O)[O-])ccc2c(NCCCN(C)C)c1C | 15.6 µM (inactive)
COc1ccc(COC(=O)NNC(=O)C2CSC(c3ccccc3)N2C(C)=O)cc1 (centres undefined) | > 100 µM (inactive)
CC1(C=O)CCC23COC4(CCC5C6(C)CCC(OC7OCC(OC8OC(CO)C(O)C(OC9OC(CO)C(O)C(O)C9O)C8OC8OCC(O)C(O)C8O)C(O)C7OC7OC(CO)C(O)C(O)C7O)C(C)(C)C6CCC5(C)C4(C)CC2O)C3C1 (centres undefined) | 1.48 µM (inactive)
CN(C)CCNC(=O)c1cccc2nc3c(ccc4ccccc43)nc12 | 3.33 µM (inactive)

* * *

# System: NCI/ADR-RES
# assay-comment: NCI tumour cell line growth inhibition, 48 h
Calls of active or inactive are those of the source. Cut-off read from the data, not from the text of the source: active = GI50 up to about 1.1 µM and inactive = higher.

compound | GI50
N=c1oc2ccccc2cc1-c1nc2ccccc2c(=O)[nH]1 | 72.6 µM (inactive)
CC(C)C(NC(=O)C(Cc1ccccc1)NC(=O)[C@H]1CCC[C@H]1NC(=O)C(Cc1ccc(OC(C)(C)C)cc1)NC(=O)OC(C)(C)C)C(N)=O (some centres undefined) | > 100 µM (inactive)
COC(=O)CCc1ccc(CCC(=O)OC)cc1 | > 100 µM (inactive)
CC(=O)Oc1ccc(-c2cc3ccccc3oc2=O)cc1 | > 100 µM (inactive)
O=C(c1ccc(Cl)cc1)C(O)c1ccc(Cl)cc1 (centres undefined) | > 100 µM (inactive)
O=C1c2ccccc2S(=O)(=O)c2cc(-c3nn[nH]n3)ccc21 | > 100 µM (inactive)
COC1/C=C/OC2(C)Oc3c(C)c(O)c4c(c3C2=O)C(=O)C=C(NC(=O)/C(C)=C\C=C\C(C)C(OC=O)C(C)C(O)C(C)C(OC(C)=O)C1C)C4=O (centres undefined) | 17.5 µM (inactive)
O=c1[nH]c(=O)n(C2CC(O)C(CO)O2)cc1OCCCc1ccccc1 (centres undefined) | > 100 µM (inactive)
COC1=C(OC)C(=O)C(Sc2ccc3ccccc3c2)=CC1=O | 14.7 µM (inactive)
N=C(N)NS(=O)(=O)c1ccc(NC(=O)c2ccc3nc4ccccc4c(N)c3c2)cc1 | > 100 µM (inactive)
CS(=O)(=O)OCC(CCl)(CCl)CCl | > 100 µM (inactive)
O=C(O)CC(Cc1ccc2c(c1)OCO2)C(=O)O (centres undefined) | > 100 µM (inactive)
O=C1c2ccccc2/C(=N\c2ccc3ccccc3c2)C1(C1=C(c2ccccc2)/C(=N/c2ccc3ccccc3c2)c2ccccc21)c1ccccc1 (centres undefined) | 6.01 µM (inactive)
O=c1n(Cc2ccccc2)c(=O)n2c(=O)n(Cc3ccccc3)c(=O)n12 | > 100 µM (inactive)
C[Si](C)(c1ccccc1)[C@H]1CCCC=C1CCNC1c2ccccc2CCc2ccccc21 | 76.2 µM (inactive)
CN(c1ccccc1)S(=O)(=O)c1ccccc1[N+](=O)[O-] | > 100 µM (inactive)
O=C1CC(C(OCc2ccccc2)C(OCc2ccccc2)C(COCc2ccccc2)OCc2ccccc2)CC(=O)N1 (centres undefined) | > 75 µM (inactive)
COC(=O)C1=C(OC(=O)c2ccccc2)C(C(=O)OC)[C@]2(O)[C@@H](C(=O)OC)[C@H]1C[C@@H](c1ccccc1)[C@@H]2C(=O)OC (some centres undefined) | 2.62 µM (inactive)
CCN(CC)C1CCC(C2c3cc4c(cc3OC(N3CCOCC3)C2C)OCO4)CC1 (centres undefined) | 27 µM (inactive)
CC(C)(C)n1nc(C2CC2)cc1NC(=O)Nc1ccc(Cl)cc1 | > 100 µM (inactive)
CSc1nc(C)c(Br)c(=O)n1C1OC(COC(C)=O)C(OC(C)=O)C(OC(C)=O)C1OC(C)=O (centres undefined) | > 100 µM (inactive)
O=C1CC(=O)NC(NN2C(=O)/C(=C/c3ccc(Cl)cc3)N=C2c2ccccc2)=N1 | 14.9 µM (inactive)
Brc1ccc(-c2cn3ccncc3n2)cc1 | > 100 µM (inactive)
CNC(=O)c1ccccc1-[s+]1c2ccccc2c(=O)n1C (centres undefined) | > 100 µM (inactive)
CCCCCC(=O)OCC(=O)[C@H]1[C@H](C)C[C@H]2[C@@H]3C[C@H](F)C4=C/C(=N/OC(=O)c5cccc6c(=O)c7ccccc7[nH]c56)C=C[C@]4(C)[C@H]3[C@@H](O)C[C@@]21C | 11.2 µM (inactive)
CCOC1NC(=O)Oc2ccccc21 (centres undefined) | > 100 µM (inactive)
COc1ccc(Oc2nc(C#CC(C)(C)O)nc(Oc3ccc(OC)cc3)n2)cc1 | 18.9 µM (inactive)
CCCC(=O)n1[nH]c(=O)n(-c2ccc(Cl)cc2)c1=O | > 100 µM (inactive)
CCOC(=O)NC(Nc1c(F)c(F)c(F)c(F)c1F)(C(F)(F)F)C(F)(F)F | > 100 µM (inactive)
C=C1c2nc3ccccc3n2C=C(c2ccc(Cl)cc2)N1c1ccccc1 | 12.2 µM (inactive)
COc1ccc(CNC(C)C(=O)O)cc1 (centres undefined) | > 100 µM (inactive)
c1ccc(CN[C@]23C4C5CC6C7C5C2C7[C@@](NCc2ccccc2)(C64)N3Cc2ccccc2)cc1 (some centres undefined) | > 100 µM (inactive)
COc1ccc(COC(=O)NNC(=O)C2CSC(c3ccccc3)N2C(C)=O)cc1 (centres undefined) | > 100 µM (inactive)
O=C1C(Cl)=C(NCCN2CCOCC2)C(=O)c2c(O)ccc(O)c21 | 2.09 µM (inactive)
O=C(O)C1CCCCC1C(=O)Nn1cnnc1 (centres undefined) | > 100 µM (inactive)
CCCCOC(=O)C1CN2C=CC=NC2=NC1(C(F)(F)F)C(F)(F)F (centres undefined) | > 100 µM (inactive)
CCCCCCCCCCCCCCCCOCC(CCl)OP(=O)(O)OP(=O)(O)OCC1OC(n2ccc(N)nc2=O)C(O)C1O (centres undefined) | > 100 µM (inactive)
c1ccc2c(Nc3ncco3)cccc2c1 | > 10 µM (inactive)
Oc1nc2c(c(-c3ccc(F)cc3)n1)COC/C2=C\c1ccc(F)cc1 | > 100 µM (inactive)
CC1=Nc2sc3c(c2C2=NCCN12)CCCC3 | 14.8 µM (inactive)
O=[N+]([O-])c1ccc(NN=C2c3ccccc3Cc3ccccc32)c([N+](=O)[O-])c1 | 4.82 µM (inactive)
Cc1ccc2c(=O)c(-c3nnc(N)s3)c[nH]c2n1 | > 100 µM (inactive)
CNc1nc2n(CCO)c(-c3ccccc3)c(-c3ccccc3)nc-2c(=O)n1 | > 50 µM (inactive)
CC1=C(C#N)S(=O)(=O)c2c(oc(C)c2C)N1 | > 100 µM (inactive)
